Listing of entries alongside the reported Eos.
Species on record: Rattus norvegicus
assay.protocol: Open TG-GATES - Regimen: Daily Repeat
Format: toxicity, organism-based, Sprague-Dawley
Parameters: regimen Daily Repeat, gender Male, age 6 weeks
assay.setup: in vivo, po, 100 mg/kg, […], tissue Blood, route gavage, dose level Low, time 14 day
Express it in %; write the number only.

Req: Requested field: Eos. Item: O=C(O)c1ccccc1Nc1ccccc1 [FENAMIC ACID]
Resp: 1

Req: Quick one: Eos for CCCCNC(=O)NS(=O)(=O)c1ccc(C)cc1 [TOLBUTAMIDE] ?
Resp: 0.8

Req: Consider the compound CC(=O)[C@@]1(O)CC[C@H]2[C@@H]3C=C(Cl)C4=CC(=O)CC[C@]4(C)[C@H]3CC[C@@]21C [CHLORMADINONE] and give its measured Eos.
Resp: 0.8

Req: Using the record for CC(S)C(=O)NCC(=O)O (centres undefined) [TIOPRONIN] , report its Eos.
Resp: 1

---

Species on record: Rattus norvegicus
assay.protocol: Open TG-GATES - Regimen: Single
Type: toxicity, organism-based, Sprague-Dawley
Parameters: regimen Single, gender Male, age 6 weeks
assay.setup: in vivo, po, 0 mg/kg, 6 h, tissue Kidney, route gavage, dose level Control
KIDNEY_R: recorded values
Your answer is read as g, so omit the unit and give the number.

Consider the worked cases shown below.
- molecule: "CN(C)CCCN1c2ccccc2Sc2ccc(Cl)cc21"
  numeric.result: 1
- molecule: "COc1cc2ncnc(Nc3ccc(F)c(Cl)c3)c2cc1OCCCN1CCOCC1"
  numeric.result: 1
- molecule: "Nc1ccc(Cc2ccc(N)cc2)cc1"
  numeric.result: 0.9
- molecule: "C=C[C@H]1C[N@@]2CC[C@H]1C[C@@H]2[C@@H](O)c1ccnc2ccc(OC)cc12"
  numeric.result: 1
- molecule: "O=c1ccc2ccccc2o1"
  numeric.result: 0.9

Req: Item under review: CCCCNC(=O)NS(=O)(=O)c1ccc(C)cc1 [TOLBUTAMIDE] . Reported KIDNEY_R?
Resp: 0.9

---

The following molecules are listed with their measured Cl values.
Species: Rattus norvegicus
assay.protocol: Open TG-GATES - Regimen: Daily Repeat
Assay type: toxicity, organism-based, Sprague-Dawley
Set-up: regimen Daily Repeat, gender Male, age 6 weeks
assay.setup: in vivo, po, 1000 mg/kg, […], tissue Plasma, route gavage, dose level High, time 7 day
API: value field is a number in meq/L; no unit string.

Before answering, review these 3 worked examples.
- molecule: "CC(=O)[C@@]1(O)CC[C@H]2[C@@H]3C=C(Cl)C4=CC(=O)CC[C@]4(C)[C@H]3CC[C@@]21C [CHLORMADINONE]"
  metric.name: "Cl"
  quantity.unit: "meq/L"
  numeric.result: 106.8
- molecule: "O=C(O)c1ccccc1Nc1ccccc1 [FENAMIC ACID]"
  metric.name: "Cl"
  quantity.unit: "meq/L"
  numeric.result: 107
- molecule: "CCCCNC(=O)NS(=O)(=O)c1ccc(C)cc1 [TOLBUTAMIDE]"
  metric.name: "Cl"
  quantity.unit: "meq/L"
  numeric.result: 104

Here's the next entry for you.
Req: What does the data say about its Cl? Entry: CC(S)C(=O)NCC(=O)O (centres undefined) [TIOPRONIN]
Resp: 105.4

---

Species on record: Rattus norvegicus
assay.protocol: Open TG-GATES - Regimen: Daily Repeat
Type: toxicity, organism-based, Sprague-Dawley
Set-up: regimen Daily Repeat, gender Male, age 6 weeks
assay.setup: in vivo, po, 100 mg/kg, 72 h, tissue Plasma, route gavage, dose level Low, time 3 day
Measured IP by item
Write the answer as a number in mg/dL, unit excluded.

Take a look at these entries with their results.
- compound: "O=C(O)c1ccccc1Nc1ccccc1 [FENAMIC ACID]"
  quantity.unit: "mg/dL"
  numeric.result: 6.9
- compound: "CCCCNC(=O)NS(=O)(=O)c1ccc(C)cc1 [TOLBUTAMIDE]"
  quantity.unit: "mg/dL"
  numeric.result: 8.4
- compound: "CC(=O)[C@@]1(O)CC[C@H]2[C@@H]3C=C(Cl)C4=CC(=O)CC[C@]4(C)[C@H]3CC[C@@]21C [CHLORMADINONE]"
  quantity.unit: "mg/dL"
  numeric.result: 7.4

Turning to the following compound.
Req: Which IP value is on record for CC(S)C(=O)NCC(=O)O (centres undefined) [TIOPRONIN] ?
Resp: 7.4

---

Quick reference: MCV of the listed items.
Organism: Rattus norvegicus
assay.protocol: Open TG-GATES - Regimen: Single
Format: toxicity, organism-based, Sprague-Dawley
Set-up: regimen Single, gender Male, age 6 weeks
assay.setup: in vivo, po, 0 mg/kg, 9 h, tissue Blood, route gavage, dose level Control
Kindly answer with a numeric value in fL, unit omitted.

Use these answered entries as a reference point.
- compound: "CC(S)C(=O)NCC(=O)O (stereo not given) [TIOPRONIN]"
  quantity.unit: "fL"
  numeric.result: 61.7
- compound: "NS(=O)(=O)c1cc(C(=O)O)c(NCc2ccco2)cc1Cl [FUROSEMIDE]"
  quantity.unit: "fL"
  numeric.result: 62.4
- compound: "CCCCNC(=O)NS(=O)(=O)c1ccc(C)cc1 [TOLBUTAMIDE]"
  quantity.unit: "fL"
  numeric.result: 63.6

Req: MCV for `Nc1ccc(Cc2ccc(N)cc2)cc1` ?
Resp: 61.8

Req: // lookup MCV for O=c1ccc2ccccc2o1 [COUMARIN]
Resp: 65.9

Req: # lookup: MCV of CC(=O)[C@@]1(O)CC[C@H]2[C@@H]3C=C(Cl)C4=CC(=O)CC[C@]4(C)[C@H]3CC[C@@]21C [CHLORMADINONE]
Resp: 63.4

Req: Form field: reported MCV of COc1ccc([C@@H]2Sc3ccccc3N(CCN(C)C)C(=O)[C@@H]2OC(C)=O)cc1 [DILTIAZEM]
Resp: 66.5

Req: Consider the compound CN(C/C=C/C#CC(C)(C)C)Cc1cccc2ccccc12 [TERBINAFINE] and give its measured MCV.
Resp: 62.5

Req: # lookup: MCV of O=C(O)c1ccccc1Nc1ccccc1 [FENAMIC ACID]
Resp: 62.1

Req: For the compound shown here, CN(C)CCCN1c2ccccc2Sc2ccc(Cl)cc21 [CHLORPROMAZINE] , give the reported MCV.
Resp: 63

---

LDH: recorded values
Species on record: Rattus norvegicus
assay.protocol: Open TG-GATES - Regimen: Daily Repeat
Assay type: toxicity, organism-based, Sprague-Dawley
Design: regimen Daily Repeat, gender Male, age 6 weeks
assay.setup: in vivo, po, 0 mg/kg, 72 h, tissue Plasma, route gavage, dose level Control, time 3 day

Worked cases, LDH given:
- molecule: "Nc1ccc(Cc2ccc(N)cc2)cc1"
  LDH: "76.6 IU/L"
- molecule: "CC(=O)[C@@]1(O)CC[C@H]2[C@@H]3C=C(Cl)C4=CC(=O)CC[C@]4(C)[C@H]3CC[C@@]21C"
  LDH: "300.6 IU/L"
- molecule: "COc1ccc([C@@H]2Sc3ccccc3N(CCN(C)C)C(=O)[C@@H]2OC(C)=O)cc1"
  LDH: "97 IU/L"
- molecule: "O=C(O)c1ccccc1Nc1ccccc1"
  LDH: "97.8 IU/L"
- molecule: "CCN(CC)C(=S)SSC(=S)N(CC)CC"
  LDH: "190.4 IU/L"
- molecule: "CCCCNC(=O)NS(=O)(=O)c1ccc(C)cc1 [TOLBUTAMIDE]"
  LDH: "64.4 IU/L"

Req: Give the measured LDH of `O=c1ccc2ccccc2o1` .
Resp: 87.4 IU/L

Req: So what does the record say about LDH for CC(S)C(=O)NCC(=O)O (stereo unspecified) ?
Resp: 188 IU/L

Req: Requested read-out: LDH. Entry: CN(CCOc1ccc(CC2SC(=O)NC2=O)cc1)c1ccccn1.O=C(O)/C=C\C(=O)O (stereo unspecified) [ROSIGLITAZONE MALEATE]
Resp: 96.2 IU/L

Req: // returns reported LDH for input `CCO`
Resp: 75.8 IU/L

Req: Item under review: `CN(C/C=C/C#CC(C)(C)C)Cc1cccc2ccccc12` . Reported LDH?
Resp: 191.8 IU/L

---

Organism: Rattus norvegicus
assay.protocol: Open TG-GATES - Regimen: Daily Repeat
Type: toxicity, organism-based, Sprague-Dawley
Design: regimen Daily Repeat, gender Male, age 6 weeks
assay.setup: in vivo, po, 0 mg/kg, 72 h, tissue Blood, route gavage, dose level Control, time 3 day
metric.name: Hb

Here's what some known entries look like.
- compound: "Nc1ccc(Cc2ccc(N)cc2)cc1"
  metric.name: "Hb"
  result: "13.1 g/dL"
- compound: "CC(=O)[C@@]1(O)CC[C@H]2[C@@H]3C=C(Cl)C4=CC(=O)CC[C@]4(C)[C@H]3CC[C@@]21C"
  metric.name: "Hb"
  result: "13.3 g/dL"
- compound: "CC(S)C(=O)NCC(=O)O (stereo unspecified)"
  metric.name: "Hb"
  result: "13.5 g/dL"
- compound: "O=C(O)c1ccccc1Nc1ccccc1"
  metric.name: "Hb"
  result: "13.9 g/dL"
- compound: "CN(C/C=C/C#CC(C)(C)C)Cc1cccc2ccccc12"
  metric.name: "Hb"
  result: "13.5 g/dL"

Req: I am curious: what Hb value has been reported for NS(=O)(=O)c1cc(C(=O)O)c(NCc2ccco2)cc1Cl [FUROSEMIDE] ?
Resp: 13.5 g/dL

Req: Using the record for `CCN(CC)C(=S)SSC(=S)N(CC)CC` , report its Hb.
Resp: 12.5 g/dL

Req: Entry CCCCNC(=O)NS(=O)(=O)c1ccc(C)cc1 [TOLBUTAMIDE] has what Hb?
Resp: 14 g/dL

Req: Value lookup for Hb; key = `O=c1ccc2ccccc2o1`
Resp: 13.4 g/dL

Req: Could you tell me which Hb is on file for CN(CCOc1ccc(CC2SC(=O)NC2=O)cc1)c1ccccn1.O=C(O)/C=C\C(=O)O (stereo unspecified) [ROSIGLITAZONE MALEATE] ?
Resp: 13 g/dL

Req: Which measured Hb value corresponds to `CCO` ?
Resp: 14.1 g/dL
